System: ABUTH (Abutilon theophrasti)
Experiment: Preemergence herbicidal evaluation
Type: in vivo, Medic.
Conditions: Rate 0.2500 kg/ha; rated 4-5 weeks after treatment
Recorded Endpoint: Preemergence herbicidal rating ABUTH

[
  {
    "Compound": "C[C@H]1OC(c2nsc3ccc(-n4c(=O)cc(C(F)(F)F)n(C)c4=O)cc23)O[C@@H]1C [Compound 48]",
    "Tgt": "ABUTH (Abutilon theophrasti)",
    "Data Value": 9.0
  },
  {
    "Compound": "CCCC1COC(c2nsc3ccc(-n4c(=O)cc(C(F)(F)F)n(C)c4=O)cc23)O1 (centres unmarked) [Compound 77]",
    "Tgt": "ABUTH (Abutilon theophrasti)",
    "Data Value": 9.0
  },
  {
    "Compound": "CC(C)C1COC(c2nsc3ccc(-n4c(=O)cc(C(F)(F)F)n(C)c4=O)cc23)=N1 (centres unmarked) [Compound 74]",
    "Tgt": "ABUTH (Abutilon theophrasti)",
    "Data Value": 9.0
  },
  {
    "Compound": "C=CC1COC(c2nsc3ccc(-n4c(=O)cc(C(F)(F)F)n(C)c4=O)cc23)O1 (centres unmarked) [Compound 76]",
    "Tgt": "ABUTH (Abutilon theophrasti)",
    "Data Value": 9.0
  },
  {
    "Compound": "CCOc1cc(OCC)nc(-c2nsc3ccc(-n4c(=O)cc(C(F)(F)F)n(C)c4=O)cc23)n1 [Compound 43]",
    "Tgt": "ABUTH (Abutilon theophrasti)",
    "Data Value": 9.0
  },
  {
    "Compound": "C[C@@H]1C[C@H](C)OC(c2nsc3ccc(-n4c(=O)cc(C(F)(F)F)n(C)c4=O)cc23)O1 (some centres unmarked) [Compound 50]",
    "Tgt": "ABUTH (Abutilon theophrasti)",
    "Data Value": 9.0
  },
  {
    "Compound": "Cc1cccnc1-c1nsc2cc(F)c(N3C(=O)C4=C(CCCC4)C3=O)cc12 [Compound 46]",
    "Tgt": "ABUTH (Abutilon theophrasti)",
    "Data Value": 9.0
  },
  {
    "Compound": "Cn1c(C(F)(F)F)cc(=O)n(-c2ccc3snc(C4OCC(CBr)O4)c3c2)c1=O (centres unmarked) [Compound 79]",
    "Tgt": "ABUTH (Abutilon theophrasti)",
    "Data Value": 9.0
  }
]
